Test system: SNB-75 CNS
Assay: NCI tumour cell line growth inhibition, 48 h
recorded.metric: TGI

CN(C)C1C(=O)C(C(=O)NCN2CCCC2)=C(O)C2(O)C(=O)C3=C(O)c4c(O)cccc4C(C)(O)C3CC12 (centres undefined); > 100 µM

What value of TGI on SNB-75 CNS does NC1CCCCC1N.Nc1c(N=Nc2ccc(-c3ccc(N=Nc4cc(S(=O)(=O)[O-])c5ccccc5c4N)cc3)cc2)cc(S(=O)(=O)[O-])c2ccccc12.[OH3+].[OH3+].[Pt+4] have?
> 100 µM

Under SNB-75 CNS: TGI value of COC(=O)/C(=N\NC(=O)c1ccccc1O)C(C#N)c1ccccc1 (centres undefined) ?
> 50 µM

Item: Cn1ncc(NC(=O)c2nc(-c3c(F)cccc3F)sc2N)c1N1CC[C@@H](N)[C@H](F)CC1 Test system: SNB-75 CNS Read-out: TGI Value: ?
8.83 µM
